FYI, the data here is from patent US20210380596A1.

# Method: Kinetic solubility of Form CSII (saturated solutions, HPLC)
# Format: physicochemical
# Measurement Conditions: FeSSIF pH 5.0, thermodynamic from solid; pH=5.0 FeSSIF, 37° C., 24 h
Metric Name: solubility at 24 h (µg/mL)
Kindly answer with a numeric value in µg/mL, unit omitted.

State, in one line, measured solubility at 24 h of CC[C@@H]1CN(C(=O)NCC(F)(F)F)C[C@@H]1c1cnc2cnc3[nH]ccc3n12 [Form CSII]
1400

* * *

# Method: Kinetic solubility of Form CSII (saturated solutions, HPLC)
# Type: physicochemical
# Measurement Conditions: FaSSIF pH 6.5, thermodynamic from solid; pH=6.5 FaSSIF, 37° C., 30 h
Metric Name: solubility at 30 h
Include the unit after the number when you answer.

Return value of solubility at 30 h for input CC[C@@H]1CN(C(=O)NCC(F)(F)F)C[C@@H]1c1cnc2cnc3[nH]ccc3n12 [Form CSII] , no commentary.
760 µg/mL
